Recorded values, source patent USRE43327E1.

Tested on: SK-OV-3
Assay: Growth inhibition assay, PA alone, SK-OV-3
Assay type: cell-based
Details: PA alone (no DFMO), six days; repeat determinations; read-out: Cell Line IC50 SK-OV-3
property measured: IC50

compound	IC50
NCCCNCCCCNCCCNC(=O)[C@@H](N)CCCCNCC1CC2C=CC1C2 (stereo partly drawn)	> 100 µM
CC(=O)NCCCC[C@H](N)C(=O)NCCCNCCCCNCCCN	> 30 µM
CCCC/C=C\CCCCCCCCCCNCCCC[C@H](N)C(=O)NCCCNCCCCNCCCN	> 3 µM

Query for SK-OV-3: what IC50 does the record show for CCCCCCCNCCCC[C@H](N)C(=O)NCCCNCCCCNCCCN ? > 100 µM

Moving on to NCCCNCCCCNCCCNC(=O)[C@@H](N)CCCCNCC1CCCCC1 > 100 µM

Moving on to NCCCCC(NC(=O)c1ccco1)C(=O)NCCCNCCCCNCCCN (stereo not drawn) > 30 µM

Moving on to NCCCNCCCCNCCCNC(=O)[C@@H](N)CCCCNC(=O)CCCCCCCCC(=O)NCCCC[C@H](N)C(=O)NCCCNCCCCNCCCN > 30 µM

Moving on to NCCCNCCCCNCCCNC(=O)[C@@H](N)CCCCNS(=O)(=O)c1ccccc1 > 30 µM

Moving on to CCCCCCCCCCCCCC(=O)NCCCC[C@H](N)C(=O)NCCCNCCCCNCCCN 21.5 µM

Moving on to CCCCCCCCCCCCCCCC(=O)NC(CCCCN)C(=O)NCCCNCCCCNCCCN (stereo not drawn) 18.1 µM

Moving on to CC(C)CC(=O)NCCCC[C@@H](N)C(=O)NCCCNCCCCNCCCN > 100 µM
